Catalogue of normalized growth readings, one per entry.
PROTOCOL DESCRIPTION: chemical genetic growth profiling, strain panel (AID 1159580);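 also: tested at 20 µM; growth read once vehicle control cultures reached saturation at 30 °C; 1 = growth at the plate median or of vehicle wells; lower values mean less growth of the strain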
ASSAY CONTEXT: S. cerevisiae deletion strains, growth OD, locus YFR003C, strain YPI1, active compounds read low
Screen size: about 5,500 compounds; about 2,000 (36%) were called active. About 18% were inconclusive and are not listed. Some of the results follow.
MEASURE: normalized growth

>>> recorded_value("O=C1Nc2ccccc2/C1=N/N=C\\c1ccccc1Cl")
"0.966 (inactive)"
>>> recorded_value("CCC(C)COC(=O)/C=C/c1ccc(N=Cc2ccc(OC)cc2)cc1 (stereo unspecified)")
"0.968 (inactive)"
>>> recorded_value("C#Cc1cccc(N=Cc2cc(Cl)cc(Br)c2O)c1")
"0.11 (active)"
>>> recorded_value("N#CCCCCOc1ccc2c(=O)cc(-c3ccccc3)oc2c1")
"0.981 (inactive)"
>>> recorded_value("O=C(NCc1cccs1)c1csc(Cc2c(Cl)cccc2Cl)n1")
"0.991 (inactive)"
>>> recorded_value("O=C1Nc2ccccc2/C1=N/N=C\\c1cc(Br)cc(Br)c1O")
"0.947 (inactive)"

---

PROTOCOL DESCRIPTION: chemical genetic growth profiling, strain panel (AID 1159580);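 also: tested at 20 µM; growth read once vehicle control cultures reached saturation at 30 °C; 1 = growth at the plate median or of vehicle wells; lower values mean less growth of the strain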
ASSAY CONTEXT: S. cerevisiae deletion strains, growth OD, locus YNL209W, strain ssb2, active compounds read low
About 2,000 (36%) of roughly 5,500 compounds were called active. Roughly 18% stayed inconclusive and do not appear here. The list shows a part of the results.
Catalogue of normalized growth readings, one per entry.
MEASURE: normalized growth

>>> recorded_value("CC(=O)Oc1ccc(-c2cc(=O)c3c(OC(C)=O)cc(OC(C)=O)cc3o2)cc1")
0.979
>>> recorded_value("CC(=O)O[C@@H]1CC2C(C)(C)[C@H](O)C[C@H](O)[C@]2(C)C2CC[C@@]3(C)[C@H](c4ccoc4)OC(=O)[C@H]4O[C@]43[C@@]21C (some centres undefined)")
1
>>> recorded_value("O=c1c(-c2cc(O)c(O)c(O)c2)coc2cc(O)c(O)c(O)c12")
0.804
>>> recorded_value("CC(=O)Oc1cc(-c2coc3cc(OC(C)=O)c(OC(C)=O)c(OC(C)=O)c3c2=O)cc(OC(C)=O)c1OC(C)=O")
0.785

---

PROTOCOL DESCRIPTION: chemical genetic growth profiling, strain panel (AID 1159580);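 also: tested at 20 µM; growth read once vehicle control cultures reached saturation at 30 °C; 1 = growth at the plate median or of vehicle wells; lower values mean less growth of the strain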
ASSAY CONTEXT: S. cerevisiae deletion strains, growth OD, locus YCL069W, strain vba3, active compounds read low
Among all 5,500 compounds or so, about 2,000 (36%) were called active. Roughly 18% stayed inconclusive and do not appear here. Some of the results follow.
Catalogue of normalized growth readings, one per entry.
MEASURE: normalized growth

>>> recorded_value("COc1c(O)cc2c(-c3ccccc3)cc(=O)oc2c1OC")
1.01
>>> recorded_value("Nc1nnc(-c2cccc(Cl)c2Cl)c(N)n1")
1.02
>>> recorded_value("CCCCCCCCCCCCCCCC[n+]1ccccc1")
0.0581
>>> recorded_value("COc1cccc(-c2cc(=O)c3ccc(OC)cc3o2)c1")
0.947
>>> recorded_value("C=C1C(N)CC2CC1C2(C)C (configuration not stated)")
0.996
>>> recorded_value("O=C1CN2Cc3c(ccc(Cl)c3Cl)N=C2N1")
0.986
>>> recorded_value("CC(C)=CCc1c2c(c(O)c3c(=O)c(O)c(-c4ccccc4)oc13)C=CC(C)(C)O2")
0.751
>>> recorded_value("Cn1nnnc1SCC1=C(C(=O)O)N2C(=O)C(NC(=O)C(O)c3ccccc3)C2SC1 (configuration not stated)")
0.973
>>> recorded_value("C/C(=C\\C(=O)OCCCCCCCCC(=O)O)C[C@@H]1OC[C@H](C[C@@H]2O[C@H]2[C@@H](C)[C@H](C)O)[C@@H](O)[C@H]1O")
0.957
>>> recorded_value("ClC(Cl)=C(c1ccc(Cl)cc1)c1ccc(Cl)cc1")
0.995
>>> recorded_value("CC(=O)O[C@@H]1CC2C(C)(C)[C@H](O)C[C@H](O)[C@]2(C)C2CC[C@@]3(C)[C@H](c4ccoc4)OC(=O)[C@H]4O[C@]43[C@@]21C (some centres not stated)")
0.989
>>> recorded_value("CC(C)Oc1ccc2c(=O)cc(-c3ccccc3)oc2c1")
0.95
